Study System: IDO1 (Homo sapiens, UniProt P14902)
Sequence (P14902 whole entry): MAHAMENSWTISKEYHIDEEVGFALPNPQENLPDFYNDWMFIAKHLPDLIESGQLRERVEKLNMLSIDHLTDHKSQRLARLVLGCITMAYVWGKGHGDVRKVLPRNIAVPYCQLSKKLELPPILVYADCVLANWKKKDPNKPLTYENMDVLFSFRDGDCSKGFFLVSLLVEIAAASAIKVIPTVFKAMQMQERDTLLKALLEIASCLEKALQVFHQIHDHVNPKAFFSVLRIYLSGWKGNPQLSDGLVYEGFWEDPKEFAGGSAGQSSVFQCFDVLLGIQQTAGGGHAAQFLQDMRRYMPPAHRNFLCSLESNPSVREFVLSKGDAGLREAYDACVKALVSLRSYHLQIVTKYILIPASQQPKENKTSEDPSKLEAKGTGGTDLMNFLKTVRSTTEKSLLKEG
Measurement Description: IDO1 enzymatic assay
Assay type: biochemical
Set-up: His tag (N); made in house; host or cells: E. coli
Measurement Setup: read-out: Enzyme IC50 IDO1
Assay Readout: IC50 (nM)
Give bare numbers, in nM.

Reference set (6 entries):
Just so you know, measured IC50 for CC(C)c1ccc2cncn2c1C(O)C1CCC(c2cccc(Cl)c2)CC1 (stereo not shown) came out at 38

Just so you know, measured IC50 for OC(c1c(C2CC2)ccc2cncn12)C1CCC(c2ccc(-c3ccccc3)cc2)CC1 (stereo not shown) came out at 64

Just so you know, measured IC50 for OC(c1c(C2CC2)ccn2cncc12)C1CCN(c2ccc(F)cc2)CC1 (single isomer, unassigned) [Example C137a] came out at 26

Just so you know, measured IC50 for OC(c1c(C2CC2)ccc2cncn12)C1CCC(c2ccccc2Cl)CC1 (stereo not shown) came out at 48

Just so you know, measured IC50 for OC(c1c(C2CC2)ccc2cncn12)[C@H]1CC[C@H](c2ccc(C(F)(F)F)nc2)CC1 (single isomer, unassigned) [Example D107a] came out at 36

Just so you know, measured IC50 for Oc1ccc([C@H]2CC[C@H](C(O)c3c(C4CC4)ccn4cncc34)CC2)cc1 (single isomer, unassigned) [Example C104a] came out at 18

# map each compound to its IC50
1. O[C@@H](c1cc(Cl)cc2cncn12)[C@H]1CC[C@H](c2cccc3ccccc32)CC1 (single isomer, unassigned) [Example E103b]
2. OC(c1c(C2CC2)ccc2cncn12)[C@H]1CC[C@H](c2cccc(F)c2F)CC1 (single isomer, unassigned) [Example D132b]
3. O[C@@H](c1c(C2CC2)ccc2cncn12)[C@H]1CC[C@H](c2cccc3ncccc32)CC1 (single isomer, unassigned) [Example D141b]
4. O[C@H](c1c(C2CC2)ccc2cncn12)[C@H]1CC[C@H](c2cccc3ccccc32)CC1 (single isomer, unassigned) [Example D135a]

Found:
1: 1400; 2: 7500; 3: 3800; 4: 25

Just so you know, measured IC50 for COc1ccc([C@H]2CC[C@H](C(O)c3c(C4CC4)ccc4cncn34)CC2)c(F)c1 (single isomer, unassigned) [Example D146b] came out at 2900

Data provenance is patent US10882856B2.
